FYI, the data here is from patent US20250258178A1.

Target: T1, human histidine-rich glycoprotein (HRG), purified from human plasma (human, UniProt P04196 19-525)
T1 construct: also called human purified HRG; human purified HRG protein
T1 sequence: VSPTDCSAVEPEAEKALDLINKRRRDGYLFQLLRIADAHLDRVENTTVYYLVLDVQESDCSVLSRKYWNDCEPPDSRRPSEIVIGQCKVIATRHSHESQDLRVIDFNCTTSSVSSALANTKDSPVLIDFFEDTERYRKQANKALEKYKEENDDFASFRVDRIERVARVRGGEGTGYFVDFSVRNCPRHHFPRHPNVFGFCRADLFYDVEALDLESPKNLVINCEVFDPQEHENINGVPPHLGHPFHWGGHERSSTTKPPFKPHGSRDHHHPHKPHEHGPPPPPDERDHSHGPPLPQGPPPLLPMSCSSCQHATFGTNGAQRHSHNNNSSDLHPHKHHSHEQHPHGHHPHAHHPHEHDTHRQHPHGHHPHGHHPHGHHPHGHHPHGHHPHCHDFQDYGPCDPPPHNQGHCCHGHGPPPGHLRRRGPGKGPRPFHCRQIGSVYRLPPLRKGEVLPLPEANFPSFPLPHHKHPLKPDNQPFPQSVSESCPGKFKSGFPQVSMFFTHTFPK
Assay: sandwich ELISA, HRG captured by solid phase 58-5C
quantityKind: absorbance at 450 nm (OD450)

Problem: Quote absorbance at 450 nm (OD450) reported for anti-HRG monoclonal antibody 65-3A (antibody, V domains shown, Mouse hybridoma monoclonal) VH: QVILKESGPGILQPSQTLSLTCSFSGFSLSTSGVGVSWIRQPSGKGLEWLAHIYWDDDKHYNPSLKSRLTISKDTSRNQVFLRITSVDTADTATYYCALGTVGGPWFPYWGQGTLVTVSA VL: DVQMNQSHKFMSTSVGDRVSITCKASQDVSTAVAWYQQKPGQSPKILIYWASIRHTGVPDRFTGSGSGTDYTLTISSVQAEDLTLYYCQQHYSTPWTFGGGTKLEIK please.
Solution: 2 to 3 od
